# Test system: V79
# method notes: Cytotoxicity against chinese hamster V79 cells assessed as cell viability after 72 hrs by MTT assay
# Format: cell-based
# condition label: Cricetulus griseus, V79, 72 h
observable: IC50

Example molecules with recorded IC50:
INSERT INTO results (molecule, measured_on, result) VALUES
  ('COc1ccc(NC2CC(C)(C)OC3=C2C(=O)c2ccccc2C3=O)cc1 (configuration not stated)', 'V79', '0.96 µM'),
  ('O=C1C=C(NCc2cn(-c3cccc([N+](=O)[O-])c3)nn2)C(=O)c2ccccc21', 'V79', '> 13 µM'),
  ('O=C1C=C(NCc2cn(CCCN3C(=O)c4ccccc4C3=O)nn2)C(=O)c2ccccc21', 'V79', '> 11 µM');

Data request, read-out IC50, for O=C1C(Br)=C(NCc2cn(CCN3C(=O)c4ccccc4C3=O)nn2)C(=O)c2ccccc21
> 9 µM

Data request, read-out IC50, for O=C1C=C(NCc2cn(CN3C(=O)c4ccccc4C3=O)nn2)C(=O)c2ccccc21
> 12 µM

Data request, read-out IC50, for CC1(C)CC(Nc2ccc(Cl)cc2)C2=C(O1)C(=O)c1ccccc1C2=O (configuration not stated)
1.5 µM

Data request, read-out IC50, for O=C1C(Cl)=C(NCc2cn(CCCCN3C(=O)c4ccccc4C3=O)nn2)C(=O)c2ccccc21
> 10 µM

###

# Test system: MCF7
# method notes: Cytotoxicity against human MCF7 cells assessed as cell viability after 72 hrs by MTT assay
# Type: functional, cell-based
# condition label: MCF7, 72 h
observable: IC50 (µM)
Could you give me the number in µM? Just the number is fine.

Example compounds with recorded IC50:
INSERT INTO results (compound, result) VALUES
  ('CC1(C)CC(Sc2ccccc2)C2=C(O1)C(=O)c1ccccc1C2=O (centres undefined)', 13.3),
  ('CC1(C)OC2=C(C(=O)c3ccccc3C2=O)C1n1cc(-c2ccccc2)nn1 (centres undefined)', 6.95),
  ('O=C1C=C(n2cc(CNC3=C(Cl)C(=O)c4ccccc4C3=O)nn2)C(=O)c2ccccc21', 7.76);

Data request, read-out IC50, for CC1(C)CC(Nc2ccc(I)cc2)C2=C(O1)C(=O)c1ccccc1C2=O (centres undefined)
7.53

###

Consider the following compounds and their measured pIC50 readings.
# method notes: Cytotoxicity against human HCT8 cells assessed as cell viability after 72 hrs by MTT assay
# Type: functional, cell-based
# condition label: HCT-8, 72 h
Would you please state pIC50, meaning minus log10 of the concentration in mol/L, as a bare number?

Example compounds with recorded pIC50:
INSERT INTO results (compound, result) VALUES
  ('CCC(C)(O)c1cn(C2CC(C)(C)OC3=C2C(=O)c2ccccc2C3=O)nn1 (configuration not stated)', 5.56),
  ('CC1(C)CC(Nc2ccc(Br)cc2)C2=C(O1)C(=O)c1ccccc1C2=O (configuration not stated)', 5.27);

Consider the additional compound presented here.
Data request, read-out pIC50, for CC1(C)OC2=C(C(=O)c3ccccc3C2=O)C1Sc1ccccc1 (configuration not stated)
5.65

###

# Tested on: SF-295
# method notes: Cytotoxicity against human SF295 cells assessed as cell viability after 72 hrs by MTT assay
# Assay type: functional, cell-based
# condition label: SF-295, 72 h
observable: IC50 (µM)
Could you give me the number in µM? Just the number is fine.

Example compounds with recorded IC50:
INSERT INTO measurements (compound, result) VALUES
  ('CC1(C)CC(Nc2ccc(I)cc2)C2=C(O1)C(=O)c1ccccc1C2=O (stereo not given)', 9.19),
  ('CC1(C)OC2=C(C(=O)c3ccccc3C2=O)C1Sc1ccccc1 (stereo not given)', 9.15);

Record CC1(C)OC2=C(C(=O)c3ccccc3C2=O)C1n1cc(-c2ccccc2)nn1 (stereo not given) : what is its IC50 with SF-295?
3.44

Record CC1(C)CC(n2cc(C3CCCCC3)nn2)C2=C(O1)C(=O)c1ccccc1C2=O (stereo not given) : what is its IC50 with SF-295?
11.3

Record CCCCCc1cn(C2CC(C)(C)OC3=C2C(=O)c2ccccc2C3=O)nn1 (stereo not given) : what is its IC50 with SF-295?
2.77

###

# Tested on: MCF7
# method notes: Cytotoxicity against human MCF7 cells assessed as cell viability after 72 hrs by MTT assay
# Format: functional, cell-based
# condition label: MCF7, 72 h
observable: pIC50
Would you please state pIC50, meaning minus log10 of the concentration in mol/L, as a bare number?

Example molecules with recorded pIC50:
INSERT INTO measurements (molecule, observable, result) VALUES
  ('COc1ccc(NC2CC(C)(C)OC3=C2C(=O)c2ccccc2C3=O)cc1 (centres undefined)', 'pIC50', 5.99),
  ('CC1(C)CC(Nc2ccc(Br)cc2)C2=C(O1)C(=O)c1ccccc1C2=O (centres undefined)', 'pIC50', 5.30),
  ('CCCCCc1cn(C2CC(C)(C)OC3=C2C(=O)c2ccccc2C3=O)nn1 (centres undefined)', 'pIC50', 5.50),
  ('CC1(C)CC(Nc2ccc(Cl)cc2)C2=C(O1)C(=O)c1ccccc1C2=O (centres undefined)', 'pIC50', 6.01),
  ('CCC(C)(O)c1cn(C2CC(C)(C)OC3=C2C(=O)c2ccccc2C3=O)nn1 (centres undefined)', 'pIC50', 5.51);

Consider the additional molecule presented here.
Data request, read-out pIC50, for CC(=O)OC[C@H]1OC(n2cc(CNC3=C(Br)C(=O)c4ccccc4C3=O)nn2)[C@H](OC(C)=O)[C@@H](OC(C)=O)[C@@H]1OC(C)=O (some centres undefined)
5.54

###

# System: V79
# method notes: Cytotoxicity against chinese hamster V79 cells assessed as cell viability after 72 hrs by MTT assay
# Assay type: cell-based
# condition label: Cricetulus griseus, V79, 72 h
Consider the following compounds and their measured pIC50 readings.
Would you please state pIC50, meaning minus log10 of the concentration in mol/L, as a bare number?

Example compounds with recorded pIC50:
INSERT INTO assay_data (compound, result) VALUES
  ('O=C1C=C(NCc2cn(C3=CC(=O)c4ccccc4C3=O)nn2)C(=O)c2ccccc21', 5.21),
  ('CC1(C)OC2=C(C(=O)c3ccccc3C2=O)C1n1cc(-c2ccccc2)nn1 (centres undefined)', 5.12),
  ('CC1(C)CC(Nc2cccc(F)c2)C2=C(O1)C(=O)c1ccccc1C2=O (centres undefined)', 5.57),
  ('CC1(C)CC(Nc2cccc(Br)c2)C2=C(O1)C(=O)c1ccccc1C2=O (centres undefined)', 5.49);

Data request, read-out pIC50, for CCCCCc1cn(C2CC(C)(C)OC3=C2C(=O)c2ccccc2C3=O)nn1 (centres undefined)
5.25

###

# Tested on: SF-295
# method notes: Cytotoxicity against human SF295 cells assessed as cell viability after 72 hrs by MTT assay
# Assay type: functional, cell-based
# condition label: SF-295, 72 h
observable: IC50 (µM)
Could you give me the number in µM? Just the number is fine.

Example compounds with recorded IC50:
INSERT INTO measurements (compound, observable, measure_unit, result) VALUES
  ('CCC(C)(O)c1cn(C2CC(C)(C)OC3=C2C(=O)c2ccccc2C3=O)nn1 (stereo not given)', 'IC50', 'µM', 4.22),
  ('CC1(C)CC(Nc2ccc([N+](=O)[O-])cc2)C2=C(O1)C(=O)c1ccccc1C2=O (stereo not given)', 'IC50', 'µM', 5.95);

Consider the additional compound presented here.
Record CC1(C)OC2=C(C(=O)c3ccccc3C2=O)C1n1cc(C2CCCCC2)nn1 (stereo not given) : what is its IC50 with SF-295?
3.18

###

Consider the following compounds and their measured IC50 readings.
# Test system: HCT-116
# method notes: Cytotoxicity against human HCT116 cells assessed as cell viability after 72 hrs by MTT assay
# Assay type: functional, cell-based
# condition label: HCT-116, 72 h

Example compounds with recorded IC50:
INSERT INTO assay_data (compound, result) VALUES
  ('O=C1C=C(NCc2cn(CN3C(=O)c4ccccc4C3=O)nn2)C(=O)c2ccccc21', '> 12 µM'),
  ('CC1(C)CC(Sc2ccccc2)C2=C(O1)C(=O)c1ccccc1C2=O (stereo not given)', '> 14 µM'),
  ('O=C1C=C(NCc2cn(C3=CC(=O)c4ccccc4C3=O)nn2)C(=O)c2ccccc21', '> 12 µM'),
  ('CC1(C)CC(Nc2ccc(I)cc2)C2=C(O1)C(=O)c1ccccc1C2=O (stereo not given)', '> 10 µM'),
  ('O=C1C=C(NCc2cn(CCCCN3C(=O)c4ccccc4C3=O)nn2)C(=O)c2ccccc21', '> 10 µM'),
  ('CC1(C)CC(Nc2ccc([N+](=O)[O-])cc2)C2=C(O1)C(=O)c1ccccc1C2=O (stereo not given)', '5.66 µM'),
  ('O=C1C(Cl)=C(NCc2cn(CN3C(=O)c4ccccc4C3=O)nn2)C(=O)c2ccccc21', '> 11 µM'),
  ('CC1(C)CC(Nc2cccc([N+](=O)[O-])c2)C2=C(O1)C(=O)c1ccccc1C2=O (stereo not given)', '8.48 µM');

Data request, read-out IC50, for O=C1C(Br)=C(NCc2cn(CCCN3C(=O)c4ccccc4C3=O)nn2)C(=O)c2ccccc21
> 9 µM

Data request, read-out IC50, for CC1(C)CC(Nc2cccc(Br)c2)C2=C(O1)C(=O)c1ccccc1C2=O (stereo not given)
> 12 µM
